system: MDA-MB-231 cells; experiment: In vitro anti-proliferative activity assay (MTT); assay type: cell-based; conditions: Homo sapiens, 48 h incubation
Quick reference: IC50 of the listed items.
Write it as a number; the unit µM goes unstated.

COMPOUND	VALUE UNITS	MEASUREMENT
COc1cccc2c1C(=O)c1c(O)c3c(c(O)c1C2=O)C[C@@](O)(C(=O)CO)C[C@@H]3O[C@H]1C[C@H](N)[C@H](O)[C@H](C)O1 [Adriamycin, reference compound]	µM	0.12
N#CC1=C(c2ccccc2)Nc2c(c(-c3cccs3)nn2-c2ccccc2)C12C(=O)Nc1ccc(Cl)cc12 (stereo not drawn)	µM	6.4

The record that follows has no IC50 shown yet.
// IC50 (MDA-MB-231 cells) for Cc1ccc(C2=C(C#N)C3(C(=O)Nc4ccccc43)c3c(-c4cccs4)nn(-c4ccccc4)c3N2)cc1 (stereo not drawn) = 29.7

* * *

test system: WI-38 cells; assay: In vitro cytotoxic activity, WI-38 cells (MTT); format: cell-based, human; conditions: WI-38; MTT assay, human normal lung fibroblast cell line; read-out: IC50 (µM) WI-38
Reported IC50 is given for each of the following compounds.
The reply should contain only the number, in µM.

> print(dat)
                                   compound  tested.system  measurement
1  N#CC1=C(c2ccccc2)Nc2c(c(-c3cccs3)nn2-c2ccccc2)C12C(=O)Nc1ccccc12 (centres unmarked) [Compound 6a]    WI-38 cells         78.1

The compound identified as N#CC1=C(c2ccccc2)Nc2c(c(-c3cccs3)nn2-c2ccccc2)C12C(=O)Nc1ccc(Br)cc12 (centres unmarked) [Compound 6i] registered its IC50 at 39.3

* * *

tested on: MDA-MB-231 cells; assay: In vitro anti-proliferative activity assay (MTT); assay type: cell-based; details: Homo sapiens, 48 h incubation
Reported IC50 values are given for each entry in this list.
# output: bare number, implied unit µM

Consider the worked cases shown below.
> print(dat)
                                   molecule  measurement
1  N#CC1=C(c2ccc(Cl)cc2)Nc2c(c(-c3cccs3)nn2-c2ccccc2)C12C(=O)Nc1ccc(Cl)cc12 (stereo not shown)         16.6
2  Cc1ccc(C2=C(C#N)C3(C(=O)Nc4ccc(Br)cc43)c3c(-c4cccs4)nn(-c4ccccc4)c3N2)cc1 (stereo not shown)         13.5
3  N#CC1=C(c2ccccc2)Nc2c(c(-c3cccs3)nn2-c2ccccc2)C12C(=O)Nc1ccc(Br)cc12 (stereo not shown)          6.7
4  COc1ccc(C2=C(C#N)C3(C(=O)Nc4ccccc43)c3c(-c4cccs4)nn(-c4ccccc4)c3N2)cc1 (stereo not shown)         37.8
5  COc1ccc(C2=C(C#N)C3(C(=O)Nc4ccc(Cl)cc43)c3c(-c4cccs4)nn(-c4ccccc4)c3N2)cc1 (stereo not shown)         24.1

Proceed to the following item.
Record Cc1ccc(C2=C(C#N)C3(C(=O)Nc4ccc(Cl)cc43)c3c(-c4cccs4)nn(-c4ccccc4)c3N2)cc1 (stereo not shown) , field IC50: 18.2

* * *

biological target: EGFR (Homo sapiens, UniProt P00533); construct: purchased BPS Biosciences 40321; experiment: EGFR kinase ELISA assay; assay type: biochemical; conditions: colorimetric ELISA, mean ± SD of three separate experiments
Sequence (P00533 25-1210): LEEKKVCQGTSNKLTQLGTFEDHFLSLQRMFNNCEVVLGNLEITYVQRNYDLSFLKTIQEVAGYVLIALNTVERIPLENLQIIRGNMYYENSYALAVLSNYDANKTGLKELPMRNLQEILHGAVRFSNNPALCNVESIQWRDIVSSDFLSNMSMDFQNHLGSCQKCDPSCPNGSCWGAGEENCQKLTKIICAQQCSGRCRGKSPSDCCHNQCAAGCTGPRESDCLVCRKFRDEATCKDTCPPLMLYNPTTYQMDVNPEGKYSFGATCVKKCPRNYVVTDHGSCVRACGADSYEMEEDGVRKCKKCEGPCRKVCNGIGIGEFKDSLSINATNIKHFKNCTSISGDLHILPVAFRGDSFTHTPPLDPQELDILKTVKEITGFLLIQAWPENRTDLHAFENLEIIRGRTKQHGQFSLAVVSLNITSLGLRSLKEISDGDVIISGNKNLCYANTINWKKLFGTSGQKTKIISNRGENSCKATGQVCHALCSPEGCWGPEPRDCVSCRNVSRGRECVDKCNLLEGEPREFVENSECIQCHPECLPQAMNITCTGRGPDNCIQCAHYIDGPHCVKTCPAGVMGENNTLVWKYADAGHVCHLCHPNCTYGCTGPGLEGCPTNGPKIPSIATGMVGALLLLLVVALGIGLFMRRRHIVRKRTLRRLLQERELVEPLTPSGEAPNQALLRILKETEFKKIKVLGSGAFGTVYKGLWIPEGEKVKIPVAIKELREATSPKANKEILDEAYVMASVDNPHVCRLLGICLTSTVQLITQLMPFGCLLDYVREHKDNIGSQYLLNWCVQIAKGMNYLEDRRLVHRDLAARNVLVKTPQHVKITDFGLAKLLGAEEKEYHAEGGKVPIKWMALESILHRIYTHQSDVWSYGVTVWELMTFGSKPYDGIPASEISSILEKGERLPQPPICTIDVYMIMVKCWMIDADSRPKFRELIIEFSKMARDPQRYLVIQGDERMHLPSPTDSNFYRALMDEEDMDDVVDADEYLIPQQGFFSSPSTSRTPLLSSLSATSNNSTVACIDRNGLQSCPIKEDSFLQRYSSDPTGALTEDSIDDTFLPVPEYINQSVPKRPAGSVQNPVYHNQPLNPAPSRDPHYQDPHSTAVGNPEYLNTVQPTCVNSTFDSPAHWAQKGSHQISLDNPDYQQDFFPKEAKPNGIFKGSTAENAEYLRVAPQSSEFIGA
Just a reminder that ties go to f: only IC50 strictly below 0.4 µM counts as t.

The examples below pair each entry with its known result.
> print(dat)
                                   molecule                        tested.system  cat
1  Cc1ccc(C2=C(C#N)C3(C(=O)Nc4ccc(Br)cc43)c3c(-c4cccs4)nn(-c4ccccc4)c3N2)cc1 (stereo not drawn)  EGFR (Homo sapiens, UniProt P00533)    f
2  N#CC1=C(c2ccccc2)Nc2c(c(-c3cccs3)nn2-c2ccccc2)C12C(=O)Nc1ccccc12 (stereo not drawn)  EGFR (Homo sapiens, UniProt P00533)    f
3  COc1ccc(C2=C(C#N)C3(C(=O)Nc4ccc(Br)cc43)c3c(-c4cccs4)nn(-c4ccccc4)c3N2)cc1 (stereo not drawn)  EGFR (Homo sapiens, UniProt P00533)    t
4  N#CC1=C(c2ccc(Cl)cc2)Nc2c(c(-c3cccs3)nn2-c2ccccc2)C12C(=O)Nc1ccccc12 (stereo not drawn)  EGFR (Homo sapiens, UniProt P00533)    t

## Task Dear colleague, could you confirm whether IC50 of N#CC1=C(c2ccccc2)Nc2c(c(-c3cccs3)nn2-c2ccccc2)C12C(=O)Nc1ccc(Br)cc12 (stereo not drawn) falls below 0.4 µM? Thanks.
## Result t

## Task Say whether its IC50 is strictly beneath 0.4 µM. Entry: N#CC1=C(c2ccccc2)Nc2c(c(-c3cccs3)nn2-c2ccccc2)C12C(=O)Nc1ccc(Cl)cc12 (stereo not drawn)
## Result t
